- METHOD: Induction of apoptosis in rat R28 cells assessed as viable cells incubated for 24 hrs by AnnexinV-FITC/PI staining based flow cytometry (reference value: 91.34%)
- Type: toxicity, cell-based
- TEST CONTEXT: read-out: Activity
MEASURED ATTRIBUTE: viability at 24 h

Name the reported viability at 24 h value associated with the compound CN1C[C@H](c2ccc(O)c(O)c2)[C@@H](C(=O)c2cc(F)cc(F)c2)[C@]12C(=O)Nc1ccccc12
87.5%

###

- System: R28
- METHOD: Cytoprotective activity against glutamate-induced cytotoxicity in rat R28 cells assessed as increase in cell viability at 10 uM incubated for 24 hrs in presence of glutamate by MTT assay
- Format: functional, cell-based
Calls of active or inactive are those of the source. The calls are words filed in the database; no cut-off is given here.
Returns: one label drawn from active, inactive

Example entries and their recorded answers appear below.
INSERT INTO measurements (structure, measurement_target, assigned_class) VALUES
  ('CN1C[C@H](c2ccc(O)c(O)c2)[C@@H](C(=O)c2ccc(Cl)cc2Cl)[C@]12C(=O)Nc1ccccc12', 'R28', 'active'),
  ('CN1C[C@H](c2ccc(O)c(O)c2)[C@@H](C(=O)c2ccc(OC(F)(F)F)cc2)[C@]12C(=O)Nc1ccccc12', 'R28', 'active'),
  ('COc1cc(C(=O)[C@@H]2[C@@H](c3ccc(O)c(O)c3)CN(C)[C@@]23C(=O)Nc2ccccc23)ccc1O', 'R28', 'active');

What is the recorded call for this compound in the test? CN1C[C@H](c2ccc(O)c(O)c2)[C@@H](C(=O)c2ccc(Br)cc2F)[C@]12C(=O)Nc1ccccc12
active

What is the recorded call for this compound in the test? CN1C[C@H](c2ccc(O)c(O)c2)[C@@H](C(=O)c2cccc(C(F)(F)F)c2)[C@]12C(=O)Nc1ccccc12
inactive

What is the recorded call for this compound in the test? CN1C[C@H](c2ccc(O)c(O)c2)[C@@H](C(=O)c2ccccc2)[C@]12C(=O)Nc1ccccc12
active

What is the recorded call for this compound in the test? CN1C[C@H](c2ccc(O)c(O)c2)[C@@H](C(=O)c2cc(F)cc(F)c2)[C@]12C(=O)Nc1ccccc12
active

Recorded values, source ChEMBL document CHEMBL6092158.
